These measurements were taken from paper PMC3627359.

assay: In vitro Caco-2 permeability; format: in vitro ADME; conditions: human
Measurement Kind: efflux ratio

structure_as_smiles=O=c1cc(COc2cc(Cl)cc(Cl)c2)[nH][nH]1 endpoint_result=0.4
